test system: Oryza sativa; test: Toxicity in two-leaf stage Oryza sativa (rice) plants exposed to compound 3 days post transplantation assessed as phytotoxicity scores at 0.5 kg ai/ha measured 2 weeks post compound treatment; type: organism-based; details: in vivo, 336 h

compound	Activity
CN(CC1(c2cccc(Cl)n2)CO1)S(=O)(=O)c1ccc2c(c1)CCCC2 (racemic)	0
Cc1cc(S(=O)(=O)N(C)C[C@]2(c3cccc(Cl)n3)CO2)ccc1Cl	1
Cc1cc(S(=O)(=O)N(C)C[C@@]2(c3cccc(Cl)n3)CO2)ccc1Cl	0
CN(C[C@]1(c2cccc(Cl)n2)CO1)S(=O)(=O)c1ccc2c(c1)CCCC2	0
CN(C[C@@]1(c2cccc(Cl)n2)CO1)S(=O)(=O)c1ccc2c(c1)CCCC2	0
Cc1cc(S(=O)(=O)N(C)CC2(c3cccc(Cl)n3)CO2)ccc1Cl (racemic)	0
